Quick reference: growth of the listed items.
# Test system: HOP-92 NSCLC
# assayExplanation: NCI-60 one-dose screen, 48 h (100 = growth as untreated, 0 = no growth, -100 = all killed)
# conditionParameters: 10 µM unless noted
The panel holds about 83,000 compounds, 20% with a hit somewhere; the sample as a whole holds those more often.

- compound: "CCCCCn1ncc(-c2c(O)c(O)cc3c(O)c(-c4c(C)cc5c(-c6cnn(CCCCC)n6)c(O)c(O)cc5c4O)c(C)cc23)n1"
  testedTarget: "HOP-92 NSCLC"
  growth (%): -23.8
- compound: "CCC1(C(N)=O)CC2C=CC1CC2 (stereo not given)"
  testedTarget: "HOP-92 NSCLC"
  growth (%): 94.1
- compound: "Nc1nccc2c1ccn2-c1ccc(NC(=O)c2ccc(N3CCOCC3)c(C(F)(F)F)c2)cc1"
  testedTarget: "HOP-92 NSCLC"
  growth (%): -25
- compound: "O=[N+]([O-])c1cccc(C(c2ccccc2)c2ccccc2)c1"
  testedTarget: "HOP-92 NSCLC"
  growth (%): 63.9
- compound: "CC12CCC3C(CCC4CC(O)CCC43C)C1C/C(=C/O)C(=O)O2 (stereo not given)"
  testedTarget: "HOP-92 NSCLC"
  growth (%): 99.6
- compound: "CC[C@H]1[C@@H]2C=C[C@@H]3[C@H]4C/C=C\\C(=O)NCCC[C@@H]5NC(=O)/C(=C(O)/C=C/[C@@H]4C[C@@H]3[C@H]2C[C@H]1C)C5=O"
  testedTarget: "HOP-92 NSCLC"
  growth (%): -20.4
- compound: "CCC1S/C(=N\\N=C(/C)c2cc3ccccc3o2)N(c2ccccc2)C1=O (stereo not given)"
  testedTarget: "HOP-92 NSCLC"
  growth (%): 47
- compound: "CN(C)c1ccc(/C=c2\\s/c(=C\\C(=O)C(C)(C)C)[nH]c2=O)cc1"
  testedTarget: "HOP-92 NSCLC"
  growth (%): 94.5
- compound: "Cc1ccc(-c2cc(-c3nnc(SCC(=O)c4ccccc4)o3)c3ccccc3n2)cc1"
  testedTarget: "HOP-92 NSCLC"
  growth (%): 96.6
- compound: "CCn1c(C)nc([N+](=O)[O-])c1Sc1nc(N)nc2nc[nH]c12"
  testedTarget: "HOP-92 NSCLC"
  growth (%): 54.9

---

# Test system: MCF7 breast
# assayExplanation: NCI-60 one-dose screen, 48 h
# conditionParameters: 10 µM unless noted
Compounds without any hit were thinned out: in the full panel of roughly 83,000, 20% have a hit. Activity calls are given as the source filed them. Rule for the calls: active = growth percent below 10; inactive = the rest.
Outcome codes: active, inactive

- compound: "COc1cc(NC(=O)c2cc(OC)c3ccn(C)c3c2)cc2c1C[C@]1(C)CC[C@@H](O)C(C)(C)[C@H]1O2"
  categoryLabel: "inactive"
- compound: "COc1ccc2c(c1)OC(N)=C(C#N)C2c1ccc(F)c(F)c1 (stereo not given)"
  categoryLabel: "inactive"
- compound: "Cc1cc(Nc2ccc(Cl)c(Cl)c2)nc(N)n1"
  categoryLabel: "inactive"
- compound: "Nc1ncnc2c1c(-c1ccc(Oc3ccccc3)cc1)nn2C[C@H]1SSC[C@H]1O"
  categoryLabel: "active"
- compound: "COCCNC(C(=O)c1ccccc1)c1ccccc1 (stereo not given)"
  categoryLabel: "inactive"
- compound: "COc1ccc2c(-c3ccc(F)cc3)c(C#N)c(=NC(C)=O)oc2c1"
  categoryLabel: "inactive"
- compound: "FC(F)(F)c1cn(CC2CNC2)c2ncnc(Cl)c12"
  categoryLabel: "inactive"
- compound: "COc1cc(C(=O)N2CCN(C(=O)c3cc(OC)c(OCc4ccccc4)cc3N)CC2)c(N)cc1OCc1ccccc1"
  categoryLabel: "inactive"
- compound: "Nn1c(CN2CCN(c3cc4c(cc3F)c(=O)c(C(=O)O)cn4C3CC3)CC2)n[nH]c1=S"
  categoryLabel: "inactive"
- compound: "CCN(CC)CC(=O)Nc1c(C)cccc1C"
  categoryLabel: "inactive"
